# Experimental target: UniProtKB P28222
# Sequence (P28222 whole entry): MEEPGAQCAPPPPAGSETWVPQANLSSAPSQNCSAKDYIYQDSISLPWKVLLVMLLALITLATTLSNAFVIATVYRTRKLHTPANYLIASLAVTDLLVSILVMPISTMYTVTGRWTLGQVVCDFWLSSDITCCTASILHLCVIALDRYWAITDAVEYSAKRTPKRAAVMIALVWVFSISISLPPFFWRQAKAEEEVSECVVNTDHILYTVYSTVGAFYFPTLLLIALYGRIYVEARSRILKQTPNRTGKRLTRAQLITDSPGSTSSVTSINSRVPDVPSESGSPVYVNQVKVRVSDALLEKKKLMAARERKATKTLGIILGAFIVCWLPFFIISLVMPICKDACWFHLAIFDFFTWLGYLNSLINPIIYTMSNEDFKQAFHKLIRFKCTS
# Assay procedure: Binding affinity towards human 5-hydroxytryptamine 1B receptor in L-M(tk-) cells using [3H]GR-125743 as radioligand
Endpoint label: pKi
// field semantics: pKi = negative decimal log of concentration (mol/L)

Problem: Value lookup for pKi; key = NC(=O)c1ccc2c(c1)CCOC2CCN1CC=C(c2coc3cc(F)ccc23)CC1 (stereo unspecified)
Result: 6.81

Problem: Another compound to look at: NC(=O)c1ccc2c(c1)CCO[C@@H]2CCN1CC=C(c2c[nH]c3c(F)cccc23)CC1
Result: 6.70

Problem: Another compound to look at: NC(=O)c1ccc2c(c1)CCOC2CCN1CCC(c2cccc3ccccc23)CC1 (stereo unspecified)
Result: 7.14

Problem: Another compound to look at: NC(=O)c1ccc2c(c1)CCOC2CCN1CC=C(c2noc3cc(F)ccc23)CC1 (stereo unspecified)
Result: 6.81

Problem: Another compound to look at: NC(=O)c1ccc2c(c1)CCOC2CCN1CCC(c2c[nH]c3cc(F)ccc23)C1 (stereo unspecified)
Result: 7.02

Problem: Another compound to look at: NC(=O)c1ccc2c(c1)CCO[C@H]2CCN1CC=C(c2c[nH]c3c(F)cccc23)CC1
Result: 6.41

Problem: Another compound to look at: NC(=O)c1ccc2c(c1)CCOC2CCN1CCC(c2nsc3cc(F)ccc23)CC1 (stereo unspecified)
Result: 6.70

Problem: Another compound to look at: NC(=O)c1ccc2c(c1)CCOC2CCN1CCC(c2c[nH]c3cc(F)ccc23)CC1 (stereo unspecified)
Result: 6.88

Problem: Another compound to look at: NC(=O)c1ccc2c(c1)CCOC2CCN1CC=C(c2csc3cc(F)ccc23)CC1 (stereo unspecified)
Result: 6.73

Problem: Another compound to look at: NC(=O)c1ccc2c(c1)CCOC2CCN1CCN(c2c[nH]c3cc(F)ccc23)CC1 (stereo unspecified)
Result: 6.51

Problem: Another compound to look at: NC(=O)c1ccc2c(c1)CCOC2CCN1CC=C(c2c[nH]c3cc(F)ccc23)CC1 (stereo unspecified)
Result: 6.55

Problem: Another compound to look at: COc1ccc2[nH]cc(C3=CCN(CCC4OCCc5cc(C(N)=O)ccc54)CC3)c2c1 (stereo unspecified)
Result: 6.50

Problem: Another compound to look at: NC(=O)c1ccc2c(c1)CCOC2CCN1CC=C(c2cccc3ccc(F)cc23)CC1 (stereo unspecified)
Result: 6.68

Problem: Another compound to look at: NC(=O)c1ccc2c(c1)CCOC2CCN1CC=C(c2cccc3ccccc23)CC1 (stereo unspecified)
Result: 6.82

Problem: Another compound to look at: NC(=O)c1ccc2c(c1)CCOC2CCN1CC=C(c2[nH]nc3cc(F)ccc23)CC1 (stereo unspecified)
Result: 6.68

Values from ChEMBL document CHEMBL1137925
